The reported numbers originate from paper PMC7725820.

# measured-target: the molecule itself
# protocol-summary: native gel or EMSA; NativePAGE Bis-Tris gel; MBP-ALAD proteins expressed along with the isc operon in E. coli and purified anaerobically
readout-name: stoichiometry N

Ask | Suppose we examine the protein MBP-ALAD Mut AFR-AAA (enzyme, human, UniProt P13716 1-330, looked up, aminolevulinic acid dehydratase (ALAD), human, Ala306-Phe307-Arg308 motif replaced by alanines; source: E. coli BL21(DE3), expressed along with the isc operon, purified anaerobically (amylose resin); not shown: MBP, N-terminal, kept) MQPQSVLHSGYFHPLLRAWQTATTTLNASNLIYPIFVTDVPDDIQPITSLPGVARYGVKRLEEMLRPLVEEGLRCVLIFGVPSRVPKDERGSAADSEESPAIEAIHLLRKTFPNLLVACDVCLCPYTSHGHCGLLSENGAFRAEESRQRLAEVALAYAKAGCQVVAPSDMMDGRVEAIKEALMAHGLGNRVSVMSYSAKFASCFYGPFRDAAKSSPAFGDRRCYQLPPGARGLALRAVDRDVREGADMLMVKPGMPYLDIVREVKDKHPDLPLAVYHVSGEFAMLWHGAQAGAFDLKAAVLEAMTAAARAGADIIITYYTPQLLQWLKEE ; what stoichiometry N value has been reported?
Reply | 6
